The origin of these recorded values is PubChem BioAssay (NCI).

- Tested on: CAKI-1 renal
- Experimental Protocol: NCI-60 one-dose screen, 48 h (100 = growth as untreated, 0 = no growth, -100 = all killed)
- Assay Context: 10 µM unless noted
About 83,000 compounds went through this panel and 20% of them were active in at least one assay; those are over-represented in the sample as a whole. Calls of active or inactive are those of the source. Rule for the calls: active = growth percent below 10; inactive = the rest.

{"columns": ["Compound", "growth"],
 "data": [
  ["COc1cc(/C=C/C(=O)C(=Cc2ccc(F)c(F)c2)C(=O)/C=C/c2ccc(O)c(OC)c2)ccc1O", "95.6% (inactive)"],
  ["COc1cccc(C2C3=C(COC3=O)N(CCO)c3cc4c(cc32)CCC4)c1 (stereo not given)", "4.92% (active)"],
  ["O=C1CN2CCC1C/C2=C\\c1ccnc2c(Cl)cccc12 (stereo not given)", "93.9% (inactive)"],
  ["CN1CCN(c2ccc3nc(-c4ccc5nc(-c6ccc(C(F)(F)F)cc6)[nH]c5c4)[nH]c3c2)CC1", "43% (inactive)"],
  ["COc1cc(C(=O)N(C(C)C)C2CCCCC2)cc(OC)c1OC", "86.6% (inactive)"],
  ["Cc1ccc(S(=O)(=O)N2C/C(=C\\c3cc(F)cc(F)c3)C(=O)/C(=C/c3cc(F)cc(F)c3)C2)cc1", "-7.75% (active)"],
  ["OC[C@@H](O)[C@@H](O)CO", "93.9% (inactive)"],
  ["CCC(C)Oc1cc(/C=N/NC(=O)c2cnn3c2NC(c2ccccc2)C3)ccc1OC (stereo not given)", "35.9% (inactive)"],
  ["Cc1nn(CC(=O)O)c2c1C(=O)CC(C)(C)C2", "97.4% (inactive)"],
  ["CC1SC(c2ccc(Cl)cc2)N(CCc2cccs2)C1=O (stereo not given)", "-33.6% (active)"],
  ["O=C1c2ccccc2-c2cn(Cc3ccccc3)c3cccc(c23)C1c1cccnc1 (stereo not given)", "51.4% (inactive)"],
  ["COc1ccccc1/C=C/C(=O)/C=C/c1ccccc1O", "-62.5% (active)"],
  ["COc1ccc(OC)c(C2C(C#N)=C(N)Oc3cc(O)ccc32)c1 (stereo not given)", "73.5% (inactive)"],
  ["COC(=O)c1cc(-c2ccc(C)cc2)n(C(=O)CSc2nc3sc(C(N)=O)c(C)c3c(=O)n2Cc2ccccc2)n1", "97.7% (inactive)"],
  ["CCN(c1ccc(C(=O)N2CCN(c3ccccc3)CC2)cc1)S(C)(=O)=O", "96.3% (inactive)"],
  ["CCCCc1ccc(C(O)(CCN2CC3CCC(CC3)C2)c2ccccc2)cc1 (stereo not given)", "92.6% (inactive)"],
  ["COc1cc(C2C3=C(COC3=O)N(CCO)c3cc4c(cc32)OCO4)cc(OC)c1O (stereo not given)", "60.4% (inactive)"],
  ["COc1ccc2c(c1)c(=O)oc1c(C)c(OCC(C)=O)ccc12", "92.1% (inactive)"],
  ["O=c1oc2ccccc2cc1-c1csc(N=Nc2c(O)[nH]c3ccc(Cl)cc23)n1", "94.9% (inactive)"],
  ["Cc1ccc(S(=O)(=O)N2CCc3ccc(O)c4c3C2Cc2cc(Cl)ccc2-4)cc1 (stereo not given)", "56.1% (inactive)"],
  ["O=c1nc(NO)[nH]c(=O)n1Cc1ccccc1", "93.1% (inactive)"],
  ["CC(C)N1CCN(c2ccc(OC[C@H]3CO[C@](Cn4cncn4)(c4ccc(Cl)cc4Cl)O3)cc2)CC1", "79.3% (inactive)"],
  ["COc1ccc(-c2c3c(N)c4c(nc3nc3c2c(C)nn3-c2ccccc2)CCCC4)cc1", "83.9% (inactive)"],
  ["O=C1/C(=C/c2ccc([N+](=O)[O-])cc2)Oc2ccc(O)cc21", "5.52% (active)"],
  ["CC(C)(C)[Si](C)(C)OC1[C@@H](CNC(=O)NC(=O)CCl)O[C@@H](n2cnc3c(N)ncnc32)[C@H]1O[Si](C)(C)C(C)(C)C (stereo not given in full)", "-64.8% (active)"],
  ["O=C1c2ccccc2C(=O)c2c(Nc3ccc(CCO)cc3)ccc(O)c21", "-4.04% (active)"],
  ["Cn1c2ccccc2c2nn(Cc3ccccc3)c(=O)nc21", "94.7% (inactive)"],
  ["COC(=O)[C@H]1CCCN1C(=O)[C@H]1CCCN1C(=O)[C@@H](Cc1c[nH]c2ccccc12)NC(=S)Nc1cc(C(F)(F)F)cc(C(F)(F)F)c1", "28.5% (inactive)"],
  ["N#Cc1c(O)c2c(c(O)c1C#N)C(=O)c1ccccc1C2=O", "85.7% (inactive)"],
  ["COc1cc(Cn2cc(F)c(=O)[nH]c2=O)cc(OC)c1", "92.9% [50 µM] (inactive)"],
  ["CCOC(=O)c1c(Cl)c2c(n1Cc1ccc(OC)cc1)-c1oncc1CCC2", "56.1% (inactive)"],
  ["COc1cccc(Nc2nc(NCCO)c3ccccc3n2)c1", "70.6% (inactive)"],
  ["O=C(CCc1nnc2sc(-c3ccccc3)nn12)c1nc2ccccc2[nH]1", "103% (inactive)"],
  ["CC(=O)OC[C@H](O)[C@@]1(O)CC[C@H]2[C@@H]3CCC4=CC(=O)CC[C@]4(C)[C@H]3[C@@H](O)C[C@@]21C", "85.5% (inactive)"],
  ["COc1cc(CNCCCN2C(=O)c3ccc4c5c(ccc(c35)C2=O)C(=O)N(CCCNCc2cc(OC)c(OC)c(OC)c2)C4=O)cc(OC)c1OC", "36.9% (inactive)"],
  ["COc1cc(NC(=O)COc2ccccc2)c(C(N)=O)cc1OC", "37.1% (inactive)"],
  ["O=S(=O)(Nc1ccccc1Cl)c1ccc(-c2cnc(C3CC3)o2)cc1", "38.1% (inactive)"],
  ["CCCCCCCC/C=C\\CCCCCCCCOc1cccc(CC(=O)NCC[N+]2(C)CCOCC2)c1", "70.1% (inactive)"],
  ["Cc1c(C(=O)Nc2nc(-c3ccccc3)cs2)nnn1-c1cccc2ccccc12", "35.8% [50 µM] (inactive)"],
  ["O=c1[nH]c(-c2ccccn2)nc2sc3c(c12)CCCCCC3", "28.1% (inactive)"]
]}
